Assay: Chemical stability, accelerated 40° C. storage
Type: physicochemical
Conditions: active ingredient in Professional Formulation 2; 42 days at 40° C.
Method: Formulations were prepared as described in Example I. Physically stable formulations (no settling or physical issues observed) were tested for chemical stability over various time spans and temperature conditions. Formulations were prepared as described in Example III. Physically stable formulations (no settling or physical issues observed) were tested for chemical stability over various time spans and temperature conditions.
READOUT KIND: 42 Days @ 40° C. (% Change from Initial)

Data request, read-out 42 Days @ 40° C. (% Change from Initial), for Cc1nn(-c2cc(NS(C)(=O)=O)c(Cl)cc2Cl)c(=O)n1C(F)F
+0.29%

For the molecule Cc1c(C(=O)c2c[nH]n(C)c2=O)ccc(S(C)(=O)=O)c1C1=NOCC1 , what 42 Days @ 40° C. (% Change from Initial) is on record?
+1.14%

Which 42 Days @ 40° C. (% Change from Initial) reading was recorded for the molecule O=C(O)COc1ccc(Cl)cc1Cl ?
+1.38%

Field request: 42 Days @ 40° C. (% Change from Initial) | item: COc1c(Cl)ccc(Cl)c1C(=O)O
0.00%
